Target: human insulin-like growth factor-II (IGF-II) (human, UniProt P01344 25-91)
Assay: cell-based or functional assay
This section presents binders with their documented Max % Inhibition (133.3 nM), n = 2, IGF-II Proliferation, BxPC3 cells values.
Reply numerically in %, unit not repeated.

Query string: Reported Max % Inhibition (133.3 nM), n = 2, IGF-II Proliferation, BxPC3 cells for mAb 7.251.3 (antibody, V domains shown, Fully human XenoMouse hybridoma mAb, lambda light chain (V1-13/JL2); also called ATCC PTA-7422) VH: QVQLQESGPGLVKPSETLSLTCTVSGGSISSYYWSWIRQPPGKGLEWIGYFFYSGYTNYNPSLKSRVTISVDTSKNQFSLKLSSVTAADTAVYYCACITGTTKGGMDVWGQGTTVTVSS VL: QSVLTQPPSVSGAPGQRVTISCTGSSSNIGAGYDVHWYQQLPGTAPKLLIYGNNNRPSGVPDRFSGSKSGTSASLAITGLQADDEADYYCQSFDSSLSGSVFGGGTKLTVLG : what is it?
Result string: 105

Query string: Reported Max % Inhibition (133.3 nM), n = 2, IGF-II Proliferation, BxPC3 cells for mAb 7.34.1 (antibody, V domains shown, Fully human XenoMouse hybridoma mAb, lambda light chain (V1-13/JL2); also called ATCC PTA-7423) VH: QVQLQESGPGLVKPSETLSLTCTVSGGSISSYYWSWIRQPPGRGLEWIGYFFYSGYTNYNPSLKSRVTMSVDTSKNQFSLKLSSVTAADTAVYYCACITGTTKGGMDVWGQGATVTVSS VL: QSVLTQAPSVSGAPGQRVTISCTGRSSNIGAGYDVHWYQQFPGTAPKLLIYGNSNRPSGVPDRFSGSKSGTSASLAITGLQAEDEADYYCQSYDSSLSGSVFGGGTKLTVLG : what is it?
Result string: 109

Query string: Reported Max % Inhibition (133.3 nM), n = 2, IGF-II Proliferation, BxPC3 cells for mAb 7.158.2 (antibody, V domains shown, Kappa light chain (L5/JK3); also called 7.158.1; 7_158_1) VH: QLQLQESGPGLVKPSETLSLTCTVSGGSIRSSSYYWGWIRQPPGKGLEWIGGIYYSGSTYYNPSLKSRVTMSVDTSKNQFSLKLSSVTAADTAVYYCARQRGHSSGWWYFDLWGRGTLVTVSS VL: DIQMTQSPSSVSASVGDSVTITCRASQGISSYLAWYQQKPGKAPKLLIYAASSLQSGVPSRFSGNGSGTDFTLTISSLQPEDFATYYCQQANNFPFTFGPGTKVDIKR : what is it?
Result string: 148

Query string: Reported Max % Inhibition (133.3 nM), n = 2, IGF-II Proliferation, BxPC3 cells for mAb 7.234.2 (antibody, V domains shown, Kappa light chain (L5/JK3); also called 7.234.1; 7_234_1) VH: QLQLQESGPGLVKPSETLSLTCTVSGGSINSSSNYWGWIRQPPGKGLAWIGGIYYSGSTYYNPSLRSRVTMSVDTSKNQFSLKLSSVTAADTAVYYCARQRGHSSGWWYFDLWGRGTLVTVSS VL: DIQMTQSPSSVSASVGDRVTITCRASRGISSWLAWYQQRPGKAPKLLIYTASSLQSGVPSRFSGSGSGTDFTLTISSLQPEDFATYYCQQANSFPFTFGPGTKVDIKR : what is it?
Result string: 201

Attention now shifts to the item below.
Query string: Reported Max % Inhibition (133.3 nM), n = 2, IGF-II Proliferation, BxPC3 cells for mAb 7.159.2 (antibody, V domains shown, Fully human XenoMouse hybridoma mAb, lambda light chain (V1-19/JL2); Sister clones 7.159.1 and 7.159.2 are said to be identical; also called 7.159.1; 7_159_1) VH: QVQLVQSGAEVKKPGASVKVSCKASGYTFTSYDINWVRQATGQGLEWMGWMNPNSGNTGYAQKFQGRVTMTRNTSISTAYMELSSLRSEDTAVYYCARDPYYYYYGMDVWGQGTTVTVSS VL: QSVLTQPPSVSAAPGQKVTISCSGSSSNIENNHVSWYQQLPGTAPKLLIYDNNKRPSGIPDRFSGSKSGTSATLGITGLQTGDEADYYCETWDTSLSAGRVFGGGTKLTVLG : what is it?
Result string: 118

Cited source for all entries: patent US20070196376A1
